Tested on: CD34^+ BM Erythroid
Assay: Colony formation assay, CD34+ bone marrow erythroid lineage
Format: cell-based
Conditions: normal cells, 6 hours incubation, colony formation
quantityMeasured: IC50

Given CC(=O)c1cc2c(o1)C(=O)c1ccccc1C2=O [Compound 401, 2-acetylnaphtho[2,3-b]furan-4,9-dione] , report its IC50 on CD34^+ BM Erythroid. > 30 µM

* * *

Test system: Paca2 cells
Test: MTT cell viability Paca2
Assay type: cell-based
Conditions: PaCa-2; Paca2, Pancreas, MTT 24 hours
quantityMeasured: pIC50
Schema: pIC50 number; meaning minus log10 of the concentration expressed in molar units.

Given C=C(OP(=O)(O)O)C1=CC2C(=O)c3ccccc3C(=O)C2O1 (stereo not shown) , report its pIC50 on Paca2 cells. 6.35

Numbers sourced from patent US20210024482A1.
